Values from paper PMC11110133

molecular target: isolated recombinant SARS-CoV-2 M^pro (Severe acute respiratory syndrome coronavirus 2); assay: SPE-MS SARS-CoV-2 Mpro inhibition assay; assay type: biochemical; conditions: relative to 7
Answer each item with its documented fold increase in M^pro inhibition potency relative to γ-lactam 7.

Exam item: So what's the measured fold increase in M^pro inhibition potency relative to γ-lactam 7 for this one? O=C1Cc2ccsc2N1S(=O)(=O)c1ccc(C(F)(F)F)cc1 [23f]
Marked response: ~6 fold

Exam item: So what's the measured fold increase in M^pro inhibition potency relative to γ-lactam 7 for this one? O=C1Cc2ccsc2N1S(=O)(=O)Cc1ccccc1 [23b]
Marked response: ~2 fold

Exam item: So what's the measured fold increase in M^pro inhibition potency relative to γ-lactam 7 for this one? O=C1Cc2ccsc2N1S(=O)(=O)c1ccccc1 [23c]
Marked response: ~2 fold

Exam item: So what's the measured fold increase in M^pro inhibition potency relative to γ-lactam 7 for this one? CC1C(=O)N(S(C)(=O)=O)c2sccc21 (stereo not shown) [16a]
Marked response: ~2 fold

###

molecular target: isolated recombinant SARS-CoV-2 M^pro (Severe acute respiratory syndrome coronavirus 2); assay: SPE-MS SARS-CoV-2 Mpro inhibition assay; assay type: biochemical; conditions: SPE-MS; SARS-CoV-2 M^pro 0.05 μM, substrate peptide 2.0 μM; mean ± SD of two independent runs (n = 2); read-out: IC50
Answer each item with its documented pIC50.
Please express pIC50 as -log10 of the molar concentration.

Exam item: So what's the measured pIC50 for this one? CS(=O)(=O)N1C(=O)Cc2ccsc21 [C00017]
Marked response: 5.07

Exam item: So what's the measured pIC50 for this one? CS(=O)(=O)N1C(=O)C2(CC=CC2)c2ccsc21 [C00013]
Marked response: 4.21

Exam item: So what's the measured pIC50 for this one? C=CCC1C(=O)N(S(C)(=O)=O)c2sccc21 (racemic) [C00009]
Marked response: 5.46

Exam item: So what's the measured pIC50 for this one? O=C1Cc2ccsc2N1S(=O)(=O)Cc1ccccc1 [C00019]
Marked response: 5.37

Exam item: So what's the measured pIC50 for this one? CCCC1C(=O)N(S(C)(=O)=O)c2sccc21 (stereo not shown) [C00010]
Marked response: 5.49

Exam item: So what's the measured pIC50 for this one? O=C1Cc2ccsc2N1S(=O)(=O)c1ccccc1 [C00020]
Marked response: 5.33

Exam item: So what's the measured pIC50 for this one? CC1C(=O)N(S(C)(=O)=O)c2sccc21 (stereo not shown) [C00006]
Marked response: 5.41

Exam item: So what's the measured pIC50 for this one? CS(=O)(=O)N1C(=O)C(Cc2ccccc2)c2ccsc21 (racemic) [C00014]
Marked response: 5.40

Exam item: So what's the measured pIC50 for this one? O=C1Cc2ccsc2N1S(=O)(=O)c1ccc(C(F)(F)F)cc1 [C00023]
Marked response: 5.89

Exam item: So what's the measured pIC50 for this one? CS(=O)(=O)N1C(=O)C(CCC#N)c2ccsc21 (racemic) [C00007]
Marked response: 5.57

###

biological target: isolated recombinant SARS-CoV-2 M^pro (Severe acute respiratory syndrome coronavirus 2); experiment: SPE-MS SARS-CoV-2 Mpro inhibition assay; format: biochemical; details: SPE-MS; SARS-CoV-2 M^pro 0.05 μM, substrate peptide 2.0 μM; mean ± SD of two independent runs (n = 2); read-out: IC50
Answer each item with its documented IC50.
Kindly answer with a numeric value in µM, unit omitted.

Exam item: Give recorded IC50 with isolated recombinant SARS-CoV-2 M^pro (Severe acute respiratory syndrome coronavirus 2) for the following molecule: CC(C)C1C(=O)N(S(C)(=O)=O)c2sccc21 (racemic) [C00012]
Marked response: 16

Exam item: Give recorded IC50 with isolated recombinant SARS-CoV-2 M^pro (Severe acute respiratory syndrome coronavirus 2) for the following molecule: CS(=O)(=O)N1C(=O)Cc2sccc21 [C00002]
Marked response: 8.4

Exam item: Give recorded IC50 with isolated recombinant SARS-CoV-2 M^pro (Severe acute respiratory syndrome coronavirus 2) for the following molecule: CS(=O)(=O)N1C(=O)Cc2ccsc21 [C00001]
Marked response: 8.5

Exam item: Give recorded IC50 with isolated recombinant SARS-CoV-2 M^pro (Severe acute respiratory syndrome coronavirus 2) for the following molecule: COc1ccc(S(=O)(=O)N2C(=O)Cc3ccsc32)cc1
Marked response: 2.7

Exam item: Give recorded IC50 with isolated recombinant SARS-CoV-2 M^pro (Severe acute respiratory syndrome coronavirus 2) for the following molecule: O=C1Cc2ccsc2N1S(=O)(=O)c1ccc([N+](=O)[O-])cc1
Marked response: 4.4
